Measured values drawn from ChEMBL document CHEMBL1149473 for this set.

- assay_explanation: Therapeutic index, IC50 for H9/EC50 for HIV 3B
- Type: cell-based
- settings: human, H9 cells; read-out: Ratio IC50/EC50
measure: selectivity ratio

Here is how some molecules turned out for selectivity ratio.
[[record]]
molecule = "CC(C)C[C@H](NC(=O)[C@]12CCC(C)(C)C=C1[C@H]1CC[C@@H]3[C@@]4(C)CC[C@H](OC(=O)CC(C)(C)C(=O)O)C(C)(C)[C@@H]4CC[C@@]3(C)[C@]1(C)CC2)C(=O)O"
observed = "> 2740"

[[record]]
molecule = "C=C(C)[C@@H]1CC[C@]2(C(=O)O)CC[C@]3(C)[C@H](CC[C@@H]4[C@@]5(C)CC[C@H](OC(=O)CC(C)(C)C(=O)O)C(C)(C)[C@@H]5CC[C@]43C)[C@@H]12 [BEVIRIMAT]"
observed = "> 6250"


Please turn your attention to the following entry.
In plain terms, CC1(C)C=C2[C@H]3CC[C@@H]4[C@@]5(C)CC[C@H](OC(=O)C(C)(C)CC(=O)O)C(C)(C)[C@@H]5CC[C@@]4(C)[C@]3(C)CC[C@@]2(C(=O)NCCCCCCCCCCC(=O)O)CC1 has a documented selectivity ratio of > 3.5
